Target: I-A^d (Mus musculus, UniProt P01921+P04228)
Sequence (P04228 24-256): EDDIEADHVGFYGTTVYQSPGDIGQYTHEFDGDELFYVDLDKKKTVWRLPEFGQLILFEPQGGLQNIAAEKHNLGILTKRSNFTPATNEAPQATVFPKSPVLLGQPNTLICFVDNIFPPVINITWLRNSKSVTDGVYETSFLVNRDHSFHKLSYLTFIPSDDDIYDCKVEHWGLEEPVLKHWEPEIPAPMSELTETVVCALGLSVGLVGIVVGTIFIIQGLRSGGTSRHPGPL
Sequence (P01921 28-265): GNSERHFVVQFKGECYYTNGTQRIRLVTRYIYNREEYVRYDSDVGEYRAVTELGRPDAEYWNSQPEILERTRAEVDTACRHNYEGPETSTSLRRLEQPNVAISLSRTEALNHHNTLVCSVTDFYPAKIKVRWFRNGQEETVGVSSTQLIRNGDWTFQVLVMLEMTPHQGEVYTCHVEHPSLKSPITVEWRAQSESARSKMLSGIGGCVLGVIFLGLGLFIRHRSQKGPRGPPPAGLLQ
Assay: biochemical
Type: binding, BALB/c mouse
Conditions: Binding Assay IC50, I-A^d (membrane 15mers)
The reader will find reported IC50 values listed item by item below.
Field format: number, assumed µM, no unit text.

compound	system-name	unit-abbrev	IC50
CC[C@H](C)[C@H](NC(=O)[C@@H](NC(=O)[C@@H](NC(=O)[C@H](CCCNC(=N)N)NC(=O)[C@H](CCC(N)=O)NC(=O)[C@@H](NC(=O)[C@H](CCSC)NC(=O)[C@H](CC(N)=O)NC(=O)[C@H](CO)NC(=O)CNC(=O)[C@@H](N)C(C)C)[C@@H](C)O)C(C)C)C(C)C)C(=O)N[C@@H](C)C(=O)N[C@@H](CC(C)C)C(=O)N[C@@H](CC(C)C)C(=O)N[C@H](C(=O)O)C(C)C [M53–67]	I-A^d (Mus musculus, UniProt P01921+P04228)	µM	0.03

Next:
# input Provide only the value of recorded IC50 for CSCC[C@H](NC(=O)[C@H](Cc1c[nH]c2ccccc12)NC(=O)[C@H](CCCCN)NC(=O)[C@H](CCC(=O)O)NC(=O)[C@H](CCC(N)=O)NC(=O)[C@H](CCCNC(=N)N)NC(=O)[C@@H](NC(=O)[C@H](CCCCN)NC(=O)[C@H](CC(C)C)NC(=O)CNC(=O)[C@H](Cc1c[nH]cn1)NC(=O)[C@@H](N)CC(N)=O)[C@@H](C)O)C(=O)N[C@H](C(=O)NCC(=O)N[C@@H](CCCNC(=N)N)C(=O)O)[C@@H](C)O [M9–23]
# output 40.9

---

Target: I-E^d (Mus musculus, UniProt P01904+P01915)
Sequence (P01904 26-255): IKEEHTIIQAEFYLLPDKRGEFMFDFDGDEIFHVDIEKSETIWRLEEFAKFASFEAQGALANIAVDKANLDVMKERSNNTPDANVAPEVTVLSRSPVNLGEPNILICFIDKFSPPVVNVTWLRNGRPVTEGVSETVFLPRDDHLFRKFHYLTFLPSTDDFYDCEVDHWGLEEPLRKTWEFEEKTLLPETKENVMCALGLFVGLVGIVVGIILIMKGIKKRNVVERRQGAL
Sequence (P01915 27-264 limits assumed): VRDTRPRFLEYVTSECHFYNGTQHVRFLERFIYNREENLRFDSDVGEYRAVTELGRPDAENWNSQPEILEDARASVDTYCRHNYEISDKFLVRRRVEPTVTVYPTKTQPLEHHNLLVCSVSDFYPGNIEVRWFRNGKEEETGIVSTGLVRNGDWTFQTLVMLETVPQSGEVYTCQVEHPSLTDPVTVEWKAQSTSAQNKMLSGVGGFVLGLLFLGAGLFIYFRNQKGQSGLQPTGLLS
Test: biochemical
Reported pIC50 by item:
Entry type: numeric. Quantity: pIC50, the -log10 of concentration in molar units.

Worked examples, 2 compounds total:
structure-smiles-string	pIC50
CC(C)C[C@H](NC(=O)[C@H](C)NC(=O)[C@@H](NC(=O)[C@@H](NC(=O)[C@H](C)NC(=O)[C@H](Cc1ccccc1)NC(=O)[C@H](Cc1ccccc1)NC(=O)[C@@H]1CCCN1C(=O)[C@H](CC(N)=O)NC(=O)[C@H](CCCNC(=N)N)NC(=O)[C@@H](NC(=O)[C@H](Cc1ccccc1)NC(=O)[C@H](Cc1c[nH]c2ccccc12)NC(=O)[C@H](CCCNC(=N)N)NC(=O)[C@@H](N)CCC(=O)O)C(C)C)C(C)C)[C@@H](C)O)C(=O)O	5.64
CC[C@H](C)[C@H](NC(=O)[C@@H](NC(=O)[C@H](CC(C)C)NC(=O)[C@H](C)NC(=O)[C@@H](NC(=O)[C@@H](NC(=O)[C@H](C)NC(=O)[C@H](Cc1ccccc1)NC(=O)[C@H](Cc1ccccc1)NC(=O)[C@@H]1CCCN1C(=O)[C@H](CC(N)=O)NC(=O)[C@H](CCCNC(=N)N)NC(=O)[C@@H](N)C(C)C)C(C)C)[C@@H](C)O)[C@@H](C)O)C(=O)N[C@@H](C)C(=O)N[C@@H](Cc1ccc(O)cc1)C(=O)O	5.72

Okay, next one:
# input Specify reported pIC50 for the compound shown: CC[C@H](C)[C@H](NC(=O)[C@H](C)N)C(=O)N[C@@H](CC(=O)O)C(=O)N[C@@H](CC(C)C)C(=O)N1CCC[C@H]1C(=O)N[C@H](C(=O)N[C@@H](Cc1c[nH]cn1)C(=O)N[C@@H](CCC(=O)O)C(=O)N[C@@H](CC(N)=O)C(=O)N[C@@H](Cc1c[nH]cn1)C(=O)NCC(=O)N[C@@H](CC(C)C)C(=O)N[C@@H](CCCCN)C(=O)N[C@H](C(=O)N[C@@H](CCCNC(=N)N)C(=O)O)[C@@H](C)O)[C@@H](C)O
# output 4.44
